ASSAY METHOD TEXT: protein stability index of a GFP-peptide fusion (yeast GPS) (PSI 1-4); higher = more stable; sorted into four equal gates, so the index is relative within each strain
TEST CONDITIONS: san1∆
REPORTED METRIC: protein stability index

Use the examples below as a reference point.
> print(dat)
                   seq.string          reported.metric  reported
 1   MAKKEGTPKTDSFIFDG [MED4]  protein stability index      2.94
 2   NSWFDVTWRTFTGDFLR [FAS1]  protein stability index      1.98
 3   SQSQQKLLKEKVKLFHG [MED2]  protein stability index      3.07
 4   GQVSMSQFNGSGNGSNP [PGD1]  protein stability index      2.93
 5  TPIAGRFTPGSFTNYIT [RPS0A]  protein stability index      2.97
 6   FKSTMLQVSEKDLFELE [ARP7]  protein stability index       1.1
 7   GSGQPDNDTVVTNDDKS [SRB8]  protein stability index      2.52
 8   IIQLILWSIHPSRQFDH [SRB8]  protein stability index      1.59
 9   NNNNTTTTTTTTNNNNT [SWI1]  protein stability index      3.36
10   RLKFGHRLIATHTNLER [SNF2]  protein stability index      2.29

Take each entry in turn and give its protein stability index.
1. IQSKRLRNKIAGYTTHL [RPS17A]
2. VIIRRLKTRDWIVVLPW [POP1]

Outgoing:
[3.23, 1.98]

Take each entry in turn and give its protein stability index.
1. QMIELNRQICLVQKTVQ [GRR1]
2. FDEEFDPFKTSSFNKRS [IRR1]
3. RSPPRPPSLKIIDGPKA [PRP28]
4. HEYIRHLALEIGEVYND [RPN1]
5. KRKWSYVLYAKIVVLSR [RRP43]
6. GLVDENKVEAFKSLYTF [YAR002W/NUP60]

Outgoing:
2.5
2.81
1.98
2.49
1.87
3.39

###

ASSAY METHOD TEXT: protein stability index of a GFP-peptide fusion (yeast GPS) (PSI 1-4); higher = more stable; sorted into four equal gates, so the index is relative within each strain
TEST CONDITIONS: ubr1∆
What protein stability index was measured for each of the following?
Answers are plain numbers.

Use the examples below as a reference point.
> print(dat)
                         seq.string          reported.metric  reported
1          QIKTLPEQYSDILLNER [AAR2]  protein stability index      2.95
2  SLDDNSTSLEKQINSIK [YJL041W/NSP1]  protein stability index      2.96
3          AASAAGYDRHITIFSPE [SCL1]  protein stability index      2.95
4          LKLGLVEYLDVNEENDS [RET1]  protein stability index       3.1
5          PEVSMIRDIREKELKIF [RPB2]  protein stability index      2.69

Take each entry in turn and give its protein stability index.
1. SLILKESGSTPISISNA [YAR002W/NUP60]
2. EYINNCKKNTKKCLKLA [POP4]
3. VEYNLFTNRSTMMANFE [BRN1]
4. VTQKDICILGILDLCQL [CSI1]
5. HCIDYLRKNKLGYARFI [SMC4]

Outgoing:
[1.23, 2.78, 2.65, 1.29, 1.14]

Take each entry in turn and give its protein stability index.
1. MVNESDGVTHALYPQEA [RPB2]
2. NVTIAQGGVLPNIHQNL [HTA1]
3. NITDYETHPDNSNKQAV [BRR2]
4. NFPEASKLSEHLNHYIL [YCG1]
5. ELRRPGVDNLRRMGILK [RPO31]
6. KSIQDIVGLATLIVNTD [SRP21]

Outgoing:
1: 3.35; 2: 1.46; 3: 2.9; 4: 2.53; 5: 3.08; 6: 2.97

Take each entry in turn and give its protein stability index.
1. PQWKRHLEEYGYLIQVL [YCS4]
2. RTPDSISVNSSSFSLTF [POP1]
3. IRNINVQDALLTNQLYK [SNF2]

Outgoing:
1. 2.5
2. 2.37
3. 3.24

###

What protein stability index was measured for each of the following?
ASSAY METHOD TEXT: protein stability index of a GFP-peptide fusion (yeast GPS) (PSI 1-4); higher = more stable; sorted into four equal gates, so the index is relative within each strain
TEST CONDITIONS: san1∆
Numbers only.

> print(dat)
                 seq.string  reported
1  NVMLNIYPRTVIDIEIH [SKI6]      1.58

Take each entry in turn and give its protein stability index.
1. FEVLAPKWERVFLFDIE [RRI2]
2. KKQNLSSHQRVFKLSTN [SWP82]
3. SHLWEIDIPLDEQAFYN [RPC37]

Outgoing:
1. 2.92
2. 2.05
3. 2.98

Take each entry in turn and give its protein stability index.
1. SYAGKQVVGPFHTSFSA [SMC4]
2. ATVPSAPYRKQIISNAH [YAR002W/NUP60]

Outgoing:
1: 3.08; 2: 1.88

Take each entry in turn and give its protein stability index.
1. LDSGDDQPQSSEAKRTK [BRR2]
2. EQQKEELTDKLSALNSE [SMC1]
3. GLTNWAAAYATGLLIAR [RPL5]
4. YTRYLDRIYMLFHFEED [PRP8]

Outgoing:
3.25
2.73
1.14
1.5

The sequence identified as ESQQQDESLKDEATVPN [SWI3] registered its protein stability index at 3.31

###

ASSAY METHOD TEXT: protein stability index of a GFP-peptide fusion (yeast GPS) (PSI 1-4); higher = more stable; sorted into four equal gates, so the index is relative within each strain
TEST CONDITIONS: pdr5∆
REPORTED METRIC: protein stability index
Answers are plain numbers.

> print(dat)
                         seq.string          reported.metric  reported
1          IPTTKNLRLLVEENRVR [DLS1]  protein stability index      3.08
2        ATAAESDVAKQLAALGY [RPL16A]  protein stability index      2.91
3          LTVENKLQFETDRLSTT [SMC1]  protein stability index      3.05
4  LSQQQKDAQKKDIEKLT [YIL149C/MLP2]  protein stability index      2.95
5         EKLLETNVSKQNDFLFS [ECM29]  protein stability index      2.97

The sequence identified as VYREVCAACHSLDRVAW [CYT1] registered its protein stability index at 3.04

###

What protein stability index was measured for each of the following?
ASSAY METHOD TEXT: protein stability index of a GFP-peptide fusion (yeast GPS) (PSI 1-4); higher = more stable; sorted into four equal gates, so the index is relative within each strain
TEST CONDITIONS: pdr5∆
One number for each entry.

Use the examples below as a reference point.
> print(dat)
                  seq.string          reported.metric  reported
1  LSAADIVAQSEVEVSTR [RPO31]  protein stability index      2.53
2  RCFSCGKVVGDKWESYL [RPB10]  protein stability index      2.11
3   VYFGDENKVMLPRCSKE [RRI2]  protein stability index      3.37

Take each entry in turn and give its protein stability index.
1. QLAPSSVDPQSSSTQNV [DIS3]
2. DEDEDNDLDEDDIYDIS [RPN4]
3. RGMLGLLEPPAKELQGI [RPO31]
4. TIKISTNDDSIKNLTVQ [RGR1]
5. LAKERQKLWLLECQLFP [SSN8]
6. QESFNSVQNLDQLLTDL [NUT1]
7. PNSNKTHTEQNNPPKPQ [SNF2]
8. PAKPALSFGTATSDNKT [YJL041W/NSP1]

Outgoing:
1: 3.21; 2: 3.46; 3: 1.72; 4: 3.05; 5: 1.85; 6: 3.2; 7: 3.07; 8: 3.12

Take each entry in turn and give its protein stability index.
1. KLAKNLQIGDVVERHLE [RPO31]
2. DLASSKEVLAKIVDLLA [RPN5]
3. KKRSKARKETYSSYIYK [HTB1]
4. TSPFGGARPGRVARRNA [RPS9A]
5. IHYSWSFILYYRRALQS [YML103C/NUP188]
6. TTEMLDKLMVTSIRSTP [MED6]
7. LFNKPPSTNAQNVNVPS [YOR098C/NUP1]
8. LNATKISPSAPSKDSFT [YAR002W/NUP60]

Outgoing:
1: 3.49; 2: 3.43; 3: 2.9; 4: 2.84; 5: 1.09; 6: 2.45; 7: 3.05; 8: 3
